tested on: K562; assay: Cell cycle arrest in human K562 cells assessed as accumulation at S phase at 50 uM after 24 hrs by flow cytometry; type: functional
Strictly below 20% in Activity: y. Otherwise: n.

Example entries begin here.
structure: Nc1ccccc1C#C/C=C\C#Cc1c(F)c(F)c(F)c(F)c1F
assigned class: n
--
structure: Nc1ccccc1C#C/C=C\C#CC#C/C=C\C#Cc1ccccc1N
assigned class: n
--
structure: Nc1ccccc1C#C/C=C\C#Cc1ccccc1C(F)(F)F
assigned class: y
--
structure: Nc1ccccc1C#C/C=C\C#Cc1ccc(F)cc1F
assigned class: n
--
structure: Nc1ccccc1C#C/C=C\C#Cc1ccccc1[N+](=O)[O-]
assigned class: n
--
structure: Nc1ccccc1C#C/C=C\C#Cc1ccccc1OC(F)(F)F
assigned class: n
--
structure: Nc1ccccc1C#C/C=C\C#Cc1ccccc1F
assigned class: n
--
structure: Nc1ccccc1C#C/C=C\C#Cc1ccc([N+](=O)[O-])cc1
assigned class: n

Then there is this compound:
Prompt line: Please state whether Activity is below 20% for CCOC(=O)c1ccccc1C#C/C=C\C#Cc1ccccc1N
Response line: y

----------
Listing of entries alongside the reported GI50.
tested on: MDA-MB-231; test: Cytotoxicity against human MDA-MB-231 cells; type: functional

structure: Nc1ccccc1C#C/C=C\C#Cc1ccccc1F
assay target: MDA-MB-231
result: 10 µM
--
structure: Nc1ccccc1C#C/C=C\C#Cc1ccc(F)cc1F
assay target: MDA-MB-231
result: 15.8 µM
--
structure: COc1ccc(/C=C\c2cc(OC)c(OC)c(OC)c2)cc1O
assay target: MDA-MB-231
result: 0.01 µM
--
structure: Nc1ccccc1C#C/C=C\C#Cc1ccccc1[N+](=O)[O-]
assay target: MDA-MB-231
result: 0.398 µM
--
structure: Nc1ccccc1C#C/C=C\C#Cc1ccccc1OC(F)(F)F
assay target: MDA-MB-231
result: 5.01 µM
--
structure: Nc1ccccc1C#C/C=C\C#Cc1c(F)c(F)c(F)c(F)c1F
assay target: MDA-MB-231
result: 2.51 µM
--
structure: COc1cc2c(c(OC)c1OC)-c1ccc(OC)c(=O)cc1[C@@H](NC(C)=O)CC2
assay target: MDA-MB-231
result: 0.316 µM
--
structure: Nc1ccccc1C#C/C=C\C#Cc1ccccc1C(F)(F)F
assay target: MDA-MB-231
result: 0.398 µM

With MDA-MB-231 as the test system, Nc1ccccc1C#C/C=C\C#CC#C/C=C\C#Cc1ccccc1N showed GI50 of 1.58 µM

----------
system: SNB-75; experiment: Cytotoxicity against human SNB75 cells; type: functional; conditions: read-out: pGI50 (converted)
readout name: GI50

Please review the following examples before continuing.
structure: COc1cc2c(c(OC)c1OC)-c1ccc(OC)c(=O)cc1[C@@H](NC(C)=O)CC2
assay target: SNB-75
result: 25.1 nM

structure: Nc1ccccc1C#C/C=C\C#Cc1ccccc1OC(F)(F)F
assay target: SNB-75
result: 2510 nM

Next item in the queue.
Nc1ccccc1C#C/C=C\C#Cc1ccccc1C(F)(F)F yielded GI50 of 79.4 nM
